test: NCI Yeast Anticancer Drug Screen. Data for the mec2-1 strain (AID 157); details: S. cerevisiae mec2-1 strain, at 50.0 µM, stronger effect = higher value
The panel holds about 79,000 compounds, 15% with a hit somewhere; the sample as a whole holds those more often. The source made the active and inactive calls. Cut-off read from the data, not from the text of the source: active = growth inhibition above about 70%; inactive = the rest.
PARAMETER_MEASURED: growth inhibition

{"MOLECULE": "Cc1c(N=Nc2cccc(Cl)c2Cl)c(-c2ccccc2)nn1C(=S)S", "OBSERVED_VALUE": "42.6% (inactive)"}
{"MOLECULE": "CN(C)c1ccc(/C=C(\\NC(=O)c2ccccc2)C(=O)Nc2ccccc2C(=O)NCc2ccccc2)cc1", "OBSERVED_VALUE": "11.7% (inactive)"}
{"MOLECULE": "COc1ccc(C23CCCC(=O)C2C2C(=O)CCCC23c2ccc(OC)cc2)cc1 (configuration not stated)", "OBSERVED_VALUE": "-0.85% (inactive)"}

**Query** Please give measured growth inhibition of the following entry: `Cc1cc2c(s1)C(=O)c1sccc1C2=O`
**Result** 90.8% (active)

**Query** Give growth inhibition for the following molecule: `CNC(=O)n1c(N)nc(-c2ccccc2)c1-c1ccccc1`
**Result** 4.55% (inactive)

**Query** Specify growth inhibition for `Nc1ccc(/C=C/C(=O)O)cc1` and stop.
**Result** -6% (inactive)

**Query** Note growth inhibition for the molecule shown: `CC(=O)OCCc1ccc2c(c1)OCO2`
**Result** -11.8% (inactive)

**Query** Please report the measured growth inhibition for `Cc1cc(=O)c(C#N)c(C)o1`
**Result** 10.2% (inactive)

**Query** Look up and state reported growth inhibition for `O=C1/C(=C/c2ccc(C(=O)O)cc2)CNC/C1=C\c1ccc(C(=O)O)cc1`
**Result** -14.9% (inactive)

**Query** Let me know recorded growth inhibition for `c1cc[n+](Cc2ccc3ccccc3n2)cc1` , thanks.
**Result** -5.5% (inactive)

**Query** Indicate its recorded growth inhibition; the molecule in question is CCCCCCCCCCCCC(Br)C(=O)OCC (configuration not stated)
**Result** -7.6% (inactive)

**Query** Please report the measured growth inhibition for `NC(=O)/N=N/C(N)=O`
**Result** -1.05% (inactive)

---

assay: NCI Yeast Anticancer Drug Screen. Data for the bub3 strain (AID 167); details: S. cerevisiae bub3 mutant strain, at 50.0 µM
This is part of a sample that, as a whole, favours compounds with a hit. Of some 79,000 tested, about 15% had one in any assay. Active and inactive are the calls of the source. Cut-off read from the data, not from the text of the source: active = growth inhibition above about 70%; inactive = the rest.
Your reply should match one of these outcome classes. yes (1) = active, no (0) = inactive

{"MOLECULE": "COC(=O)/C(C#N)=C\\n1c(=S)[nH]c2ccccc21", "ASSIGNED_CATEGORY": "no (0)"}
{"MOLECULE": "CCN(CC)c1ccc(-c2c3ccccc3nc3ccccc23)cc1", "ASSIGNED_CATEGORY": "no (0)"}
{"MOLECULE": "COc1ccc(NC(=O)c2cccc([N+](=O)[O-])c2)cc1", "ASSIGNED_CATEGORY": "no (0)"}
{"MOLECULE": "CC1=C(/C=C/C(C)=C/C=C/C(C)=C/C=C/C=C(C)/C=C/C=C(C)/C=C/C=C(C)/C=C/C=C(\\C)C(=O)O)C(C)(C)CCC1", "ASSIGNED_CATEGORY": "no (0)"}
{"MOLECULE": "CCCCCCC1OCCO1", "ASSIGNED_CATEGORY": "no (0)"}
{"MOLECULE": "C=C(C)C1CC=C(/C=N/O)CC1 (stereo not given)", "ASSIGNED_CATEGORY": "no (0)"}
{"MOLECULE": "CC(C)CCc1ccccc1O", "ASSIGNED_CATEGORY": "no (0)"}
{"MOLECULE": "COc1cc(C(CC(=O)O)CC(=O)O)cc(OC)c1OC", "ASSIGNED_CATEGORY": "no (0)"}

**Query** Answer briefly: the call reported for `CC(C)NC(=O)OCc1c(COC(=O)NC(C)C)c(-c2ccc(Cl)c(Cl)c2)n2c1C[C@@H](O)C2` in this assay.
**Result** no (0)

**Query** For this molecule, state the assay outcome: CC(=O)OCC1CCCCO1 (stereo not given)
**Result** no (0)

**Query** Hello, I am checking results. What call was entered for `CCOc1ccc(S(=O)(=O)OCC)cc1` ?
**Result** no (0)

---

Experiment: NCI Yeast Anticancer Drug Screen. Data for the cln2 rad14 strain (AID 165);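 note: 0% = growth equal to vehicle treated cultures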
Settings: S. cerevisiae cln2 rad14 strain, at 50.0 µM, stronger effect = higher value
Procedure: Growth inhibition of yeast strains with defined genetic alterations is measured as a screen for potential anti-cancer activity. Selected strains with alterations in DNA damage repair or cell cycle control were exposed to compounds and growth inhibition was measured relative to vehicle treated controls. The strain used in this assay is cln2 rad14
The panel holds about 79,000 compounds, 15% with a hit somewhere; the sample as a whole holds those more often. Active and inactive are the calls of the source. Rule as the data show it: active = growth inhibition above about 70%; inactive = the rest.
PARAMETER_MEASURED: growth inhibition

Study these solved cases before continuing.
{"COMPOUND": "Cn1c(=O)c2c(nc(OC3CCCCC3)n2C)n(C)c1=O", "growth inhibition": "26.1% (inactive)"}
{"COMPOUND": "CC(=O)N/N=C/c1ccc([N+](=O)[O-])s1", "growth inhibition": "-11.8% (inactive)"}
{"COMPOUND": "FC(F)(F)c1cccc(CSCc2c(CSCc3cccc(C(F)(F)F)c3)c(CSCc3cccc(C(F)(F)F)c3)c(CSCc3cccc(C(F)(F)F)c3)c(CSCc3cccc(C(F)(F)F)c3)c2CSCc2cccc(C(F)(F)F)c2)c1", "growth inhibition": "12.2% (inactive)"}
{"COMPOUND": "CC(CCC(=O)O)C1CCC2C3CCC4CC(OC=O)CCC4(C)C3CC(=O)C12C (centres undefined)", "growth inhibition": "0.15% (inactive)"}
{"COMPOUND": "COc1cc(N=Nc2cccc(S(=O)(=O)O)c2)ccc1NC(=O)c1ccc(C(=O)Nc2ccc(N=Nc3cccc(S(=O)(=O)O)c3)cc2OC)cc1", "growth inhibition": "-8.2% (inactive)"}

**Query** Hello, please tell me recorded growth inhibition for this one: `COc1ccc(NC(=O)COC(=O)c2cccc3c(=O)c4ccccc4[nH]c23)cc1`
**Result** 23.2% (inactive)

**Query** // Input: `O=C(O)c1scc2c1CCCC2` . Output its growth inhibition only.
**Result** -67% (inactive)

**Query** Consider the compound O=C1C2ON3c4ccccc4C(=O)C3(c3ccccc3)C2C(=O)N1c1ccccc1 (centres undefined) and give its recorded growth inhibition.
**Result** -14.3% (inactive)

**Query** Note down growth inhibition recorded for `CCOC(=O)/C(C#N)=C/c1ccc(Cl)cc1`
**Result** 0.85% (inactive)

---

assay: NCI Yeast Anticancer Drug Screen. Data for the rad50 strain (AID 155);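 note: 0% = growth of vehicle-only cultures of the same strain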; details: S. cerevisiae rad50 strain growth inhibition; at 50.0 µM; stronger effect = higher value
Compounds without any hit were thinned out: in the full panel of roughly 79,000, 15% have a hit. Where a SMILES comes first, the peptide text is derived from it. [ ]: non-standard residue; d: D form. The star is where a group is joined. ξ: configuration not given here. Tos = Cc1ccc(S(=O)(=O)*)cc1; ξY = NC(Cc1ccc(O)cc1)C(=O)O
// reported growth inhibition for each item listed
# number only, unit % dropped from output

// solved cases for growth inhibition follow
{"COMPOUND": "COC(=O)C(Cc1ccc(O)cc1)NC(=O)CNS(=O)(=O)c1ccc(C)cc1 (stereo not drawn) (Tos-Gly-[ξY]-OMe)", "PARAMETER_MEASURED": "growth inhibition", "OBSERVED_VALUE": 35.8}
{"COMPOUND": "O=C1CCC(C(Sc2ccccc2)(Sc2ccccc2)Sc2ccccc2)C1 (stereo not given)", "PARAMETER_MEASURED": "growth inhibition", "OBSERVED_VALUE": -5.05}
{"COMPOUND": "COc1ccc2nc3c(=O)[nH]c(=O)nc-3n(CC(O)C(O)C(O)CO)c2c1 (stereo not given)", "PARAMETER_MEASURED": "growth inhibition", "OBSERVED_VALUE": 24.9}

**Query** Indicate its recorded growth inhibition; the compound in question is `O=C1C(=O)c2ccc3c(c2-c2cc4c(cc21)OCO4)OCO3`
**Result** -5.55

**Query** Identify measured growth inhibition corresponding to `O=C(N/N=C/c1ccccc1F)c1ccncc1`
**Result** 1.1

---

assay: NCI Yeast Anticancer Drug Screen. Data for the cln2 rad14 strain (AID 165);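 note: 0% = growth equal to vehicle treated cultures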; details: S. cerevisiae cln2 rad14 strain, at 50.0 µM, stronger effect = higher value
About 79,000 compounds went through this panel and 15% of them were active in at least one assay; those are over-represented in the sample as a whole.
PARAMETER_MEASURED: growth inhibition (%)
Entry rule: numbers only, all in %.

Solved cases (3 shown):
{"COMPOUND": "COc1c(C(=O)O)ccc(C(=O)NCCCCCN(O)C(=O)CCC(=O)NCCCCCN(O)C(=O)CCC(=O)NCCCCCN(O)C(C)=O)c1OC", "OBSERVED_VALUE": -24.9}
{"COMPOUND": "O=Cc1c2c(cc3c1CC1(C3)Cc3cc4c(c(C=O)c3C1)CCCC4)CCCC2", "OBSERVED_VALUE": 25.3}
{"COMPOUND": "Nc1cc(S(=O)(=O)O)ccc1O", "OBSERVED_VALUE": -41.9}

**Query** Dear colleague, please send me the reported growth inhibition for NC(=O)CC(N)C(=O)OCc1ccc([N+](=O)[O-])cc1 (stereo unspecified) when you can.
**Result** -11.2

**Query** Complete the entry with growth inhibition for CC(=O)OC[C@]1(C)CCCC2(C)C1CCC1C=C(C)[C@H]3CCC12C3 (stereo partly specified)
**Result** -1.65

**Query** Look up and report measured growth inhibition for this entry: NC1=NN(c2ccccc2)C(=O)C1/C(=N\NC(=O)c1cc2ccccc2cc1O)C(=O)Nc1ccc(Cl)cc1 (stereo unspecified)
**Result** 24.8

**Query** Please report growth inhibition for the following compound: O=C1CCC2(c3ccccc3)Nc3ncccc3N12 (stereo unspecified)
**Result** 3.85

**Query** Kindly indicate its recorded growth inhibition. Item: `CCCCCCCCCSCCS`
**Result** -16.2

**Query** Note down growth inhibition recorded for `C/C=C/C[P+](Cc1ccccc1)(c1ccccc1)c1ccccc1`
**Result** -32.1

**Query** Respond only with growth inhibition recorded for `CCc1ccc(O)c(CN2CCN(Cc3cc(CC)ccc3O)CC2)c1`
**Result** -18.4

**Query** Tell me its growth inhibition given CCC(O)C(CC)[N+](=O)[O-] (stereo unspecified) as the entry.
**Result** 4.05

**Query** Write down growth inhibition measured for item `O=Cc1ccnc2c(Cl)cccc12`
**Result** 15.1

**Query** Return growth inhibition (reported value) for this compound: `Cc1nn(-c2nc(-c3ccc(Br)cc3)cs2)c(C)c1C`
**Result** 9.6

**Query** Dear colleague, please send me the reported growth inhibition for `CC(C)(C)c1cc2c(O)c(c1)Cc1cc(C(C)(C)C)cc(c1O)Cc1cc(C(C)(C)C)cc(c1O)Cc1cc(C(C)(C)C)cc(c1O)Cc1cc(C(C)(C)C)cc(c1O)Cc1cc(C(C)(C)C)cc(c1O)Cc1cc(C(C)(C)C)cc(c1O)Cc1cc(C(C)(C)C)cc(c1O)C2` when you can.
**Result** 5.6

**Query** Given the compound `COc1c2c(cc3c1[C@@H]1Oc4c(ccc(O)c4CC=C(C)C)[C@@H]1CO3)OC(C)(C)C=C2` , write its reported growth inhibition.
**Result** 55.2

**Query** Give the reported growth inhibition for this compound. COC(=O)C1(C2CCCCCCC2=O)NC(=S)NC(=O)C1C#N (stereo unspecified)
**Result** 11.2

**Query** For the compound `O=C(Nc1ccc([N+](=O)[O-])cc1)c1cc(N2CCOCC2)ccn1` , report growth inhibition.
**Result** 15.6

**Query** Name the recorded growth inhibition of the compound listed here: COC1=CC(=O)C(C2CC(=O)c3c(O)cc(O)cc3O2)=CC1=O (stereo unspecified)
**Result** 7.95

**Query** Given the compound CCOC(=O)C(C)Sc1ncnc2nc[nH]c12 (stereo unspecified) , write its reported growth inhibition.
**Result** 20.9

**Query** Using known records, supply growth inhibition for `NC(=O)c1ccc(=S)[nH]c1`
**Result** -27.1

**Query** Check the records and state growth inhibition for `O=P(O)(c1cc(Cl)cc(Cl)c1)c1cc(Cl)cc(Cl)c1`
**Result** -5.1
